# System: Phospholipidosis
# Method description: Phospholipidosis-positive literature compound observed in mouse
# Assay type: ADME, organism-based
# Recorded conditions: in vivo
Quantity kind: Phospholipidosis

Recorded Phospholipidosis, per entry:
# Molecule, Phospholipidosis
records = [
    ("CC(=O)N1CCN(c2ccc(OCC3COC(Cn4ccnc4)(c4ccc(Cl)cc4Cl)O3)cc2)CC1 (stereo not given)", "Active"),
    ("Clc1ccccc1CNC[C@H]1CC[C@H](CNCc2ccccc2Cl)CC1", "Active"),
    ("CCC(c1ccc(OCCN(CC)CC)cc1)C(CC)c1ccc(OCCN(CC)CC)cc1 (stereo not given)", "Active"),
    ("CC(C)(N)Cc1ccc(Cl)cc1", "Active"),
]

# ---- query molecule ----
Task item: Give Phospholipidosis Phospholipidosis for the following molecule: C[n+]1ccc(-c2cc[n+](C)cc2)cc1
Reply: Active

----------
# System: Phospholipidosis
# Method description: Phospholipidosis-positive literature compound observed in human
# Format: ADME
Quantity kind: Phospholipidosis

# Structure string, Assay result
measured = [
    ("NC[C@H]1O[C@H](O[C@H]2[C@H](O)[C@@H](O[C@H]3O[C@H](CO)[C@@H](O)[C@H](N)[C@H]3O)[C@H](N)C[C@@H]2N)[C@H](N)C[C@@H]1O", "Active"),
    ("CCN(CC)CCOc1ccc2c(c1)C(=O)c1cc(OCCN(CC)CC)ccc1-2", "Active"),
    ("CCCCc1oc2ccccc2c1C(=O)c1cc(I)c(OCCN(CC)CC)c(I)c1", "Active"),
]
